# Tested on: MOLT-4
# Protocol Summary: NCI tumour cell line growth inhibition, 48 h
Calls of active or inactive are those of the source. Rule as the data show it: active = GI50 up to about 1.1 µM and inactive = higher.
Property Measured: GI50

# Compound, GI50
rows = [
    ("COc1ccc(-c2c(=O)[nH]n3c(=S)[nH]c(-c4ccccc4)nc23)cc1OC", "8.51 µM (inactive)"),
    ("COc1cc2c(cc1OCCCC(=O)Nc1cc(C(=O)Nc3cc(C(=O)NCCCN(C)C)n(C)n3)n(C)n1)N=CC1CCCN1C2=O (stereo unspecified)", "4.79 µM (inactive)"),
    ("N#Cc1ccc(NC(=O)C(CC(=O)OCc2ccccc2)NC(=O)OCc2ccccc2)cc1 (stereo unspecified)", "> 10 µM (inactive)"),
    ("CCc1cccc(C(C)CC)c1NC(=O)CC1C(=O)Nc2ccccc2[S+]1[O-] (stereo unspecified)", "14.9 µM (inactive)"),
    ("C=C(C(=O)C(=O)Oc1ccc(Cl)cc1)C(=O)c1ccc(C)cc1", "58.3 µM (inactive)"),
]

// query Checklist item: GI50 tested on MOLT-4, entry `CCOC(=O)CCn1cnc(N)n1` , value?
// result > 100 µM (inactive)

// query So what GI50 did `O=C1N/C(=N/N=C/c2ccccc2)N/C1=C\c1cccs1` get with MOLT-4?
// result 27.5 µM (inactive)

// query Give MOLT-4 GI50 for O=C(CCC(=O)C(C(=O)c1ccccc1)c1ccccc1)Nc1cccc(C(F)(F)F)c1 (stereo unspecified)
// result > 100 µM (inactive)

// query Request - read-out GI50 | tested on MOLT-4 | compound `COC(=O)C(=O)CC(=O)CCn1ncc(Cl)c(Cl)c1=O`
// result 6.19 µM (inactive)

// query Which measured GI50 belongs to OC(c1nc2ccccc2[nH]1)C(O)C(O)C(O)c1nc2ccccc2[nH]1 (stereo unspecified) , tested on MOLT-4?
// result > 100 µM (inactive)

// query What is its GI50 for MOLT-4? Entry: `O=C1C(Br)=CC2(C=C1Br)CCNC1=C2C(=O)c2[nH]cnc2C1=O`
// result 41.5 µM (inactive)

----------
# Test system: IGROV-1
# Protocol Summary: NCI tumour cell line growth inhibition, 48 h
Active and inactive are the calls of the source. No stated cut-off is given here; in the data, active = GI50 up to about 1.1 µM and inactive = higher.
Property Measured: GI50

# Molecule, Reported Value
data = [
    ("CC1C(=O)CCC1C(Sc1ccccc1)(Sc1ccccc1)Sc1ccccc1 (stereo unspecified)", "15.1 µM (inactive)"),
]

// query Look up GI50 for this molecule: CCC1(CN(C)C)CC/C(=C\c2ccc(OC)c(OC)c2)C1=O (stereo unspecified)
// result > 100 µM (inactive)

// query Look up GI50 for this molecule: COc1cc(-c2coc3c(OC)c(OC4OC(CO)C(O)C(O)C4O)c(OC)cc3c2=O)cc(OC)c1C (stereo unspecified)
// result 4.65 µM (inactive)

// query For the molecule shown here, `COC(=O)/N=[N+](\[O-])C(c1ccc(Cl)cc1)c1ccc(Cl)cc1` , give the reported GI50.
// result 40.1 µM (inactive)

----------
# Tested on: 786-0
# Protocol Summary: NCI tumour cell line growth inhibition, 48 h
The source made the active and inactive calls. Rule as the data show it: active = GI50 up to about 1.1 µM and inactive = higher.
Listing of entries alongside the reported GI50.

# Compound, Target Or System, GI50
measured = [
    ("COc1ccc(C(OC(C)=O)C2C(=C(C#N)C#N)c3ccccc3C2=C(C#N)C#N)cc1 (stereo not given)", "786-0", "60.4 µM (inactive)"),
]

// query State the recorded GI50 for this entry: `COC1=C(OC)C(=O)C(Cc2c(Cl)nc3n2CCS3)=C(C)C1=O`
// result 18.2 µM (inactive)

// query For the compound shown here, Cc1nn(C(=O)c2ccccc2O)c2c1C(c1ccc(O)cc1O)SC(=N)N2 (stereo not given) , give the reported GI50.
// result 6.85 µM (inactive)

// query Param item = CCC(O)CC1OC2(CCC1C)CC1OC(=O)/C=C\C(C)(O)C(O)C(C)C(O)C(OC3CC(OC)C(O)C(C)O3)C(O)C(C)(O)CCC/C=C/C3CC(C)COC3(O)CC(O2)C1C (stereo not given) ; retrieve measured GI50.
// result 20.2 µM (inactive)

// query Quick one: GI50 of `[O-][n+]1c2cc(CN3CCOCC3)c(CN3CCOCC3)cc2[n+]([O-])c2c(O)cccc21` ?
// result 1.41 µM (inactive)

// query # input compound: `CCCN(CCC)c1c([N+](=O)[O-])cc(C(N)=O)cc1[N+](=O)[O-]` ; wanted: its GI50
// result > 100 µM (inactive)

----------
# System: HOP-92
# Protocol Summary: NCI tumour cell line growth inhibition, 48 h
Calls of active or inactive are those of the source. Rule as the data show it: active = GI50 up to about 1.1 µM and inactive = higher.
Property Measured: GI50

# Compound, Property Measured, Reported Value
records = [
    ("CC(C(=O)c1ccccc1)C1(O)C(=O)Nc2ccc(Cl)cc21 (stereo unspecified)", "GI50", "> 100 µM (inactive)"),
]

// query Notebook entry, HOP-92 assay: GI50 of COc1ccc(C(OC(C)=O)C2C(=C(C#N)C#N)c3ccccc3C2=C(C#N)C#N)cc1 (stereo unspecified) = ?
// result 45.1 µM (inactive)

// query Give HOP-92 GI50 for `CCOC(=O)c1c(N2CCCC2)[nH]c(=O)c(C(c2ccco2)c2c(O)c(C(=O)OCC)c(N3CCCC3)[nH]c2=O)c1O`
// result > 100 µM (inactive)

// query Item `Nc1n[nH]c2nc3ccccc3nc12` with HOP-92 - GI50?
// result > 100 µM (inactive)

// query State its GI50 on HOP-92: `COc1cc2c(c(OC)c1OC)-c1ccc(SC)c(=O)cc1[C@@H](NC(=O)c1ccc([N+](=O)[O-])cc1)CC2`
// result < 0.0025 µM (active)

----------
# Tested on: LOX IMVI
# Protocol Summary: NCI tumour cell line growth inhibition, 48 h
Calls of active or inactive are those of the source. No stated cut-off is given here; in the data, active = GI50 up to about 1.1 µM and inactive = higher.
Respond only with the outcome that fits, drawn from active, inactive

# Compound, Target Or System, Classification
records = [
    ("CCOC(=O)CCn1cnc(N)n1", "LOX IMVI", "inactive"),
    ("Cc1ccc(/N=N\\c2c(O)c(S(=O)(=O)O)cc3cc(S(=O)(=O)O)ccc23)c(C)c1", "LOX IMVI", "inactive"),
    ("CC/C(Cl)=N\\OC(=O)Nc1ccc(F)c([N+](=O)[O-])c1", "LOX IMVI", "inactive"),
    ("O=C1OC(C2OC(=O)c3cc(O)c(O)c(O)c3-c3c(O)c(O)c4oc(=O)c5c(c(O)c(O)c6oc(=O)c3c4c65)-c3c(cc(O)c(O)c3O)C(=O)OCC2O)C2OC(=O)c3c(c(O)c(O)c(O)c3[C@H]2O)-c2c1cc(O)c(O)c2O (some centres not stated)", "LOX IMVI", "inactive"),
]

// query In this assay, the call recorded for `CN(CCN(C)C(=O)CCOS(C)(=O)=O)C(=O)CCOS(C)(=O)=O` was what?
// result inactive

// query Short answer needed: outcome of this test for `C=CCN1C(=O)/C(=C/c2ccco2)N=C1SC/C=C/C` ?
// result inactive

// query Please share the test call associated with CC(=O)NC(CCCCNCc1ccccc1)C(=O)NCc1ccccc1 (configuration not stated) .
// result inactive

// query Hi, sorry to bother you, what did the test record for COc1cc2c(cc1OC)-c1c(oc3cc(OC4OC(CO)C(O)C(O)C4O)c(OC)cc3c1=O)C(O)O2 (configuration not stated) ?
// result inactive

// query Hey, what did the test say about c1ccc(-c2cc(C3CO3)c3ccccc3n2)cc1 (configuration not stated) ?
// result inactive

// query // param item: CC(=O)C1(O)CCC2(O)C3(O)CC=C4CC(O)CCC4(C)C3CC(OC(=O)c3ccc(O)cc3)C12C.COC1CC(OC2C(C)OC(OC3C(C)OC(OC4CCC5(C)C(=CCC6(O)C5CC(OC(=O)c5ccc(O)cc5)C5(C)C(O)(C(C)=O)CCC65O)C4)CC3OC)CC2OC)OC(C)C1O (configuration not stated) ; yields the recorded call
// result inactive

// query Record request — test call for `CN(CCCNC(=O)c1cn(C)c2c1Cc1ccccc1-2)CCCNC(=O)c1cn(C)c2c1Cc1ccccc1-2`
// result inactive

// query Test call for this compound, please: `CC(C)=CCc1c(O)cc2oc(-c3ccc(O)cc3O)cc(=O)c2c1O`
// result inactive

// query What outcome does the record of this test show for Cc1cn(C2CC(N=[N+]=[N-])C(COP(=O)(O)OCC3OC(n4cc(F)c(=O)[nH]c4=O)CC3O)O2)c(=O)[nH]c1=O (configuration not stated) ?
// result active

// query // param item: `N#Cc1c(N2CCCC2)nsc1Nc1ccc(F)cc1` ; yields the recorded call
// result inactive

----------
# Test system: NCI-H460
# Protocol Summary: NCI tumour cell line growth inhibition, 48 h
Active and inactive are the calls of the source. Cut-off read from the data, not from the text of the source: active = GI50 up to about 1.1 µM and inactive = higher.
Return exactly one item of active, inactive

# Compound, Classification
rows = [
    ("COc1cc(Br)c(CC2C3=C(CCN2C(=O)C2CCC2)CC(=O)CC3)cc1O (stereo unspecified)", "inactive"),
    ("COC[C@@H](/N=C/N1CCc2cc(OC)c(OC)cc2[C@@H]1C)C(C)(C)C", "inactive"),
    ("CCN(CC)c1ccc(/N=C2/C=CC(=O)c3ncccc32)c(C)c1", "inactive"),
    ("Cc1ccc(-c2c(C#N)c(-c3ccc(N(C)C)cc3)c(C#N)c(=O)n2NS(=O)(=O)c2ccccc2)cc1", "inactive"),
    ("[O-][n+]1c2cc(CN3CCOCC3)c(CN3CCOCC3)cc2[n+]([O-])c2c(O)cccc21", "active"),
]

// query Assay outcome for `Cc1nc(-c2cc3ccccc3oc2=O)cs1` : what was it?
// result inactive

// query Test call for this compound, please: `N#CC(C#N)=Cc1cccc(Oc2ccccc2)c1`
// result inactive

// query What did the test return for `C/C(=N\NC(=S)N1CCN(c2ccccn2)CC1)c1ccccn1` ?
// result active

// query Returns: the outcome recorded for `CSc1nc2[nH]c(=O)c(C)nc2c(=O)[nH]1` in this assay.
// result inactive

// query Record lookup: outcome of this test for `COc1cccc(-c2cc(O)c3cc(N4CCCC4)ccc3n2)c1` ?
// result active

// query # outcome recorded in this test, key = `NS(=O)(=O)c1cc(C(=O)O)c(O)c2ccccc12`
// result inactive
